system: Plasmodium falciparum NF54 stage IV/V gametocytes; experiment: % inhibition of gametocyte viability (luciferase reporter); higher = more inhibition; details: 5 µM; 48 h
Response field label takes YES when % inhibition of gametocyte viability is strictly below 8% and NO in all other cases.

Dear colleague, could you confirm whether % inhibition of gametocyte viability of COc1ccc(COc2cc3oc(=O)c4cc(C(C)O)ccc4c3cc2OC)cc1 (configuration not stated) falls below 8%? Thanks.
YES

Another molecule: CCCCc1ccc(-c2nc(C)c(C(=O)OC)s2)cc1
YES

Now try CCCC(=O)OCCc1ccccc1 .
YES

Ok, now O=C(Nc1nnc(-c2ccccc2)o1)c1ccc(F)cc1
YES

Now consider NCCCc1ccccc1C(=O)Nc1ncc([N+](=O)O)s1 .
YES

Also C[C@@H](c1nc(-c2ccc(C#N)cc2)cs1)[C@](O)(Cn1cncn1)c1ccc(F)cc1F ?
YES

Same again, this time with CCC(C)NCC(O)Cn1c2ccc(Cl)cc2c2cc(Cl)ccc21 (configuration not stated)
NO

Would you kindly repeat that for O=C(CCc1ccc2c(c1)OCO2)NCc1ccc(-c2ccccc2F)cc1 ?
YES

Try the molecule Clc1cc(Cl)c2c(c1)CCc1ccccc1C2n1ccnc1 (configuration not stated)
NO

Same again, this time with N#CCN1C(=O)COc2cc(F)c(N3C(=O)c4ccccc4C3=O)cc21
NO

What would you report for COc1ccc2cc3[n+](cc2c1OCCN(CCn1cncn1)Cc1ccc(F)cc1F)CCc1cc2c(cc1-3)OCO2 ?
NO

Then this molecule: CCCCc1ccc(-c2cc(C(=O)O)cc(-c3ccc(Cl)cc3)n2)cc1
NO

Record: CCCCSc1nc(N)c2[nH]c(=O)c(=O)n(Cc3ccccc3)c2n1
YES

Can you check Cc1ccc(C)c(OCCCCCCN2C[C@H](O)[C@@H](O)[C@H](O)[C@H]2CO)c1 next?
NO

Now try O=c1nc(N2CCN(CC3CCCCC3)CC2)sc2c([N+](=O)[O-])cc(C(F)(F)F)cc12 .
YES

Next: CC1(C)[C@H](C(=O)O)N2C(=O)C[C@H]2S1(=O)=O
YES

What about CC1CCc2c(N3CCC(O)CC3)c(F)cc3c(=O)c(C(=O)O)cn1c23 (configuration not stated) ?
YES

Then CC(C)(C)c1ccc(C(Cn2cccc(C(F)(F)F)c2=O)NC2Cc3ccccc3C2)cc1 (configuration not stated) ?
YES

Same again, this time with CCN(CC)S(=O)(=O)c1ccc(Cl)c(C(=O)Nc2sc3c(c2C#N)CCCC3)c1
NO

Then this molecule: CC(C)CCN1C(=O)C(C2=NS(=O)(=O)c3cc(NS(C)(=O)=O)ccc3N2)=C(O)[C@@H]2[C@H]3CC[C@H](C3)[C@@H]21
NO

What would you report for CCN(CC)CCCC(C)Nc1ccnc2cc(Cl)ccc12 (configuration not stated) ?
YES

Also need Cc1cc(Nc2ccc(F)cc2)nc(SCc2nc3ccccc3[nH]2)n1 , thanks.
YES

Same question, O=C(c1nc2c(C(F)(F)F)cc(C3CC3)cn2c1Cl)N1CCN([C@H]2CC[C@H](O)CC2)C(=O)C1 this time
YES

What about this molecule? O=C(O)c1cc(-c2ccc(Br)cc2)nc2ccc(Cl)cc12
YES

// same read-out, input: NC[C@H]1OB(O)c2c(OCCCO)cccc21
YES

Queued: Cc1cc(C)n(O)c(=O)c1
YES

Also O=C1C=C(c2ccccc2)S(=O)(=O)c2ccccc21 , if possible.
NO

Do the same for NC(=O)c1cnc2ccc(S(=O)(=O)c3ccccc3)cc2c1Nc1ccc(O)cc1 please
YES

Same question for Oc1cccc(C(Nc2nccs2)c2ccc3cccnc3c2O)c1 (configuration not stated) please.
NO

Can you handle OC[C@@H]1CC[C@H](n2cnc3c(O)ncnc32)O1 next?
YES

Can you handle CCc1c(OCC2CCC2)c2cc(F)ccc2[nH]c1=O next?
YES

Cool, now COc1nc2ccc(Br)cc2cc1[C@@H](c1ccccc1)[C@@](O)(CCN(C)C)c1cccc2ccccc12
NO

Can you handle O=C(CC1Sc2ncnn2C1=O)Nc1ccc(Br)cc1 (configuration not stated) next?
YES

What about C[C@@H](NC(=O)c1ccccc1-c1ccccc1)B(O)O ?
YES

Subsequent entry: O=C(Nc1ccccc1)N(Cc1cc(Br)ccc1O)c1ccc(F)cc1
YES

Param item: CC(C)(C)c1cc(C(=O)/C(C#N)=N/Nc2cccc(Cl)c2)no1
YES

// query: CCc1cc(CCC(=O)Nc2ccccc2O)c(=O)[nH]c1C
YES

Record: O=[N+]([O-])/C(Br)=C/c1ccc(Br)o1
NO

Check N#C/C(=C1/SC[C@H](c2ccc(Cl)cc2Cl)S1)n1ccnc1 too.
YES

Moving on to O=S(=O)(NCB(O)O)c1cc2c(Cl)ccc(Cl)c2s1
YES

Would you kindly repeat that for CCNC(=O)Nc1cn2c(-c3ncc(CC)cn3)cc(-c3cccnc3)cc2n1 ?
YES
